Ok so here's the combined literature set: pIC50 for ITK (Homo sapiens, UniProt Q08881).
pIC50: −log10 of the molar value.

Illustrative cases are given below, each with its answer.
C=CC(=O)Nc1cccc(-c2cc(C)cc(Nc3cc(C4CC4)[nH]n3)n2)c1    7.23
N#C/C(=C\c1cccc(-c2cnc3[nH]cc(-c4ccncc4)c3c2)c1)C(N)=O    ≥ 6.00
C=CC(=O)N1CC(Nc2cc(-c3ccnc(NC)n3)c[nH]c2=O)C1    ≥ 6.00
C=CC(=O)N1CCC[C@H](Nc2cc(Cc3cccnc3)cc(Nc3ncc(C)s3)n2)C1    8.74
Nc1ncnc2c1c(-c1ccc(Oc3ccccc3)cc1)nn2C1CC2CC1N(C(=O)/C=C/CN1CCCCC1)C2 (centres unmarked)    < 6.30

Form field pIC50 for item C=CC(=O)N1CCCC(n2nc(-c3ccc(Oc4ccccc4)cc3)c3c(N)ncc(Cl)c32)C1 (centres unmarked) on ITK (Homo sapiens, UniProt Q08881): 7.95

Reported ITK (Homo sapiens, UniProt Q08881) pIC50 for item C=CC(=O)Nc1cccc(-c2cc(CN3CCOCC3)cc(Nc3nnc(C)o3)n2)c1 was < 6.00

Measured pIC50 for this entry C=CC(=O)N1CCC[C@H](Nc2cc(CN3CCOCC3)cc(Nc3ncccn3)n2)C1 on ITK (Homo sapiens, UniProt Q08881): ~6.00
